Sourced from ChEMBL document CHEMBL1150387

Target: UniProt:P24941
Assay: Inhibition of CDK2 at 10 uM by HTRF assay relative to control
Test readout: inhibition (%)

These solved cases illustrate the format of a correct answer.
Compound | Target under test | Test readout | Readout number
Nc1nc(N2CCOCC2)cc(N2CCC(C(=O)NCCc3ccc(O)cc3)CC2)n1 | UniProt:P24941 | inhibition | 5
COC[C@@H]1CCCN1C(=O)C1CCCN1c1cc(Nc2cccc(Br)c2)ncn1 (some centres undefined) | UniProt:P24941 | inhibition | 4
COc1ccc(NC(=O)Cc2ccc(Nc3cc(N(C)c4cccc(C)c4)ncn3)cc2)cn1 | UniProt:P24941 | inhibition | 6
COc1cccc(Nc2cc(N3CCC[C@H]3C(=O)NCCc3ccc(O)cc3)nc(N)n2)c1 | UniProt:P24941 | inhibition | 3
Cc1cccc(Oc2ccnc(N3CCC[C@H]3C(=O)NCc3cccnc3)n2)c1 | UniProt:P24941 | inhibition | 8

a: O=C(NCc1ccncc1)c1cccc(Nc2cc(Nc3cccc(Br)c3)ncn2)c1
b: O=C(CN1CCN(c2ncnc3c2CN(Cc2ccccc2)CC3)CC1)Nc1cc(F)ccc1F
Problem: I need your help: which of the pair a , b has higher inhibition? State the label of the item chosen.
Solution: a

I: O=C(NC[C@@H]1CCCO1)c1cccc(Nc2nccc(Nc3ccc4ncsc4c3)n2)c1
II: CN(C)CC(C)(C)CNC(=O)C1CCN(c2cc(N3CCOCC3)nc(N)n2)CC1
Problem: Parameter metric = inhibition. Return the lower-valued option from I and II . State the label of the item chosen.
Solution: II

###

Molecular target: RAC-alpha serine/threonine-protein kinase (Homo sapiens) (UniProt P31749)
Sequence (P31749 whole entry): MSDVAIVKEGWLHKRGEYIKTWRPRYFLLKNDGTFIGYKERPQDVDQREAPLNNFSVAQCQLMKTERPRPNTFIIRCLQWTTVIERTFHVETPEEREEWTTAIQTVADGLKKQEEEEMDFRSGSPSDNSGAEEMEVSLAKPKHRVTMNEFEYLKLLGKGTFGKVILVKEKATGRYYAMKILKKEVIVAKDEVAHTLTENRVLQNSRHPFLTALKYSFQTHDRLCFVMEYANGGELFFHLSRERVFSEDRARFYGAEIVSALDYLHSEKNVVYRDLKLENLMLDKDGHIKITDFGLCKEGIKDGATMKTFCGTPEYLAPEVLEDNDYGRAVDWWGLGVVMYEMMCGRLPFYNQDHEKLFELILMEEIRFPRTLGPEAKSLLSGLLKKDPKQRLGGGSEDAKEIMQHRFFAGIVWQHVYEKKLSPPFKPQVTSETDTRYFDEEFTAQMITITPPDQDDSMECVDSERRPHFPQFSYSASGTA
Assay: Inhibition of AKT1/PKBalpha at 10 uM by HTRF assay relative to control
Test readout: inhibition (%)

Molecule | inhibition / %
Nc1nc(N2CCOCC2)cc(N2CCC(C(=O)NCCc3ccc(O)cc3)CC2)n1 | 2
COC[C@@H]1CCCN1C(=O)[C@@H]1CCCN1c1cc(Nc2cccc(OC)c2)nc(N)n1 | 0
Clc1ccc2sc(CN3CCN(c4ncnc5c4CN(Cc4ccccc4)CC5)CC3)cc2c1 | 2
CN(C)CC(C)(C)CNC(=O)[C@@H]1CCCN1c1nccc(Nc2ccccc2)n1 | 0
CN(CCc1ccccn1)C(=O)[C@@H]1CCCN1c1nccc(Nc2ccccc2)n1 | 1
CN(CCc1ccccn1)C(=O)c1cccc(Nc2nccc(Nc3ccc4ncsc4c3)n2)c1 | 0
O=C(c1nc(SCc2ccc(Cl)cc2)n2ccccc12)N1CCN(c2cc(Nc3cccc(Br)c3)ncn2)CC1 | 0
Nc1nc(Nc2ccc3ncsc3c2)cc(N2CCC[C@H]2C(=O)N[C@@H](CO)c2ccccc2)n1 | 0

A: Cc1cccc(N(C)c2cc(Nc3cccc(C(=O)N4CCCC5CCCCC54)c3)ncn2)c1 (centres undefined)
B: O=C(CN1CCN(c2ncnc3c2CN(Cc2ccccc2)CC3)CC1)Nc1cc(F)ccc1F
Problem: Parameter metric = inhibition. Return the lower-valued option from A and B . State the label of the item chosen.
Solution: B

###

Target: Mitogen-activated protein kinase 9 (Homo sapiens) (UniProt P45984)
Sequence (P45984 whole entry, looked up): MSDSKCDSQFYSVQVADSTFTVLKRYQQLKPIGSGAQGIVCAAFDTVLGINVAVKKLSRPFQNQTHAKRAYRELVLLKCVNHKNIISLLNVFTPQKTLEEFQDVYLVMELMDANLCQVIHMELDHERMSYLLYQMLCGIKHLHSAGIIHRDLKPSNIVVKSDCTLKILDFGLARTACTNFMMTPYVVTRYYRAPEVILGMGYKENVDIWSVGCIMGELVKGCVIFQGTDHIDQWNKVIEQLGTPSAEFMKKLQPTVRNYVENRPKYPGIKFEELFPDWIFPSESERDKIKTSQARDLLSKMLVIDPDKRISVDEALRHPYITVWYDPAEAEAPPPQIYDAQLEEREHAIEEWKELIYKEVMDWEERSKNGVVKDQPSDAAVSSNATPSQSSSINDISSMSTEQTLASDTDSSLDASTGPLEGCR
Experiment: Inhibition of JNK2 at 10 uM by HTRF assay relative to control
Test readout: inhibition (%)

These solved cases illustrate the format of a correct answer.
Compound | inhibition (%)
Cc1cccc(Nc2cc(Nc3cccc(C(=O)N(CC(C)O)CC(C)O)c3)ncn2)c1 (centres undefined) | 8
O=C(c1nc(SCc2ccc(Cl)cc2)n2ccccc12)N1CCN(c2cc(Nc3cccc(Br)c3)ncn2)CC1 | 3
Nc1nc(N2CCOCC2)cc(N2CCC(C(=O)NCc3cccs3)CC2)n1 | 3

A: Cc1cccc(N(C)c2cc(Nc3cccc(C(=O)NCCCn4ccnc4)c3)ncn2)c1
B: COC(=O)C(CO)NC(=O)[C@@H]1CCCN1c1nccc(Oc2cccc(C)c2)n1 (some centres undefined)
Problem: I need your help: which of the pair A , B has higher inhibition? State the label of the item chosen.
Solution: A
(A: 22%, B: 8%)

I: Cc1cc(C(=O)N2CCN(c3ncnc4c3CN(Cc3ccccc3)CC4)CC2)c(C)n1C
II: COc1cccc(Nc2cc(N3CCC[C@H]3C(=O)NCCc3ccc(O)cc3)nc(N)n2)c1
III: Clc1ccc2sc(CN3CCN(c4ncnc5c4CN(Cc4ccccc4)CC5)CC3)cc2c1
Problem: List the 3 entries from lowest inhibition to highest inhibition value. Form entry: ranked labels (order as requested).
Solution: II, I, III
(II: 2%, I: 3%, III: 5%)

###

Test: Inhibition of IRK at 10 uM by HTRF assay relative to control
Test readout: inhibition (%)

These solved cases illustrate the format of a correct answer.
Compound | Test readout | Unit name | Readout number
Cc1ccc(CN2CCN(c3nccc(C(C#N)c4ccccn4)n3)CC2)cc1 (stereo not given) | inhibition | % | 0
O=C(NCc1ccncc1)c1cccc(Nc2cc(Nc3cccc(Br)c3)ncn2)c1 | inhibition | % | 0
Cc1cccc(N(C)c2cc(N3CCN(CC(=O)Nc4nc(-c5ccccc5)cs4)CC3)ncn2)c1 | inhibition | % | 0

1: Cc1cccc(Oc2ccnc(N3CCC[C@H]3C(=O)NCCCn3ccnc3)n2)c1
2: Cc1cccc(N(C)c2cc(Nc3ccc(CC(=O)Nc4ccc5ncsc5c4)cc3)ncn2)c1
Problem: Parameter metric = inhibition. Return the lower-valued option from 1 and 2 . State the label of the item chosen.
Solution: 2

1: O=C(CN1CCN(c2ncnc3c2CN(Cc2ccccc2)CC3)CC1)Nc1cc(F)ccc1F
2: O=C(NC[C@@H]1CCCO1)c1cccc(Nc2nccc(Nc3ccc4ncsc4c3)n2)c1
3: COc1cccc(Nc2cc(Nc3cccc(C(=O)N(C)CCc4ccccn4)c3)nc(N)n2)c1
Problem: List the 3 entries from lowest inhibition to highest inhibition value. Form entry: ranked labels (order as requested).
Solution: 1, 3, 2

###

Molecular target: Tyrosine-protein kinase Lyn (Homo sapiens)
Assay: Inhibition of Lyn at 10 uM by HTRF assay relative to control
Test readout: inhibition (%)

Given smiles | inhibition (%)
Cc1cccc(N(C)c2cc(Nc3cccc(C(=O)NCc4ccc(N(C)C)cc4)c3)ncn2)c1 | 9

P: Cc1cccc(CN2CCN(c3cc(N(C)c4cccc(C)c4)ncn3)CC2)c1
Q: CN(CCc1ccccn1)C(=O)[C@@H]1CCCN1c1nccc(Nc2ccccc2)n1
R: O=C(COc1ccccc1)N1CCN(c2nccc(Nc3ccc4ncsc4c3)n2)CC1
S: Nc1nc(Nc2ccccc2)cc(N2CCC(C(=O)NCCc3ccccn3)CC2)n1
Problem: hey, can you rank those compounds up there by inhibition? biggest number first please Form entry: ranked labels (order as requested).
Solution: R, P, S, Q

###

Molecular target: Serine/threonine-protein kinase Chk2 (Homo sapiens) (UniProt O96017)
Sequence (O96017 whole entry): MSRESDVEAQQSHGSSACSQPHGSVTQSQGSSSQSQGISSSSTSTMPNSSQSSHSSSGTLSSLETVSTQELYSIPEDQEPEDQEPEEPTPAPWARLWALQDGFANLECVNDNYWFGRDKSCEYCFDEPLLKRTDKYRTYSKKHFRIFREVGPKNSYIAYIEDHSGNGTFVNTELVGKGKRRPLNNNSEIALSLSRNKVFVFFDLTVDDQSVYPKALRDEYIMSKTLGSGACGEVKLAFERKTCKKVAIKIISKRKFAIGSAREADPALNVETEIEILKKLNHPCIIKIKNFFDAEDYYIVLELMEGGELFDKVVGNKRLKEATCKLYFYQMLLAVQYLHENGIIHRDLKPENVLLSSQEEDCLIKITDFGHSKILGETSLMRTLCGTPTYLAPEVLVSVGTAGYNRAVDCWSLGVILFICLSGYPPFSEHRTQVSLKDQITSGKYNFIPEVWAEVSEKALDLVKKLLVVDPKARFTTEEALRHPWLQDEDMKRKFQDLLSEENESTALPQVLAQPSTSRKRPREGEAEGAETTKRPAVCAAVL
Experiment: Inhibition of CHK2 at 10 uM by HTRF assay relative to control
Test readout: inhibition (%)

These solved cases illustrate the format of a correct answer.
Compound | inhibition, %
O=C(NC1Cc2ccccc2C1)c1cccc(Nc2ccnc(N3CCN(c4ccccc4)CC3)n2)c1 | 1
Cc1ccc(CN2CCN(c3nccc(C(C#N)c4ccccn4)n3)CC2)cc1 (centres undefined) | 0
Cc1cccc(N(C)c2cc(Nc3cccc(C(=O)N(C)CCc4ccccn4)c3)ncn2)c1 | 0
Cc1cccc(N(C)c2cc(N3CCN(C(=O)Cc4c[nH]c5ccccc45)CC3)ncn2)c1 | 0

I: CN(C)CC(C)(C)CNC(=O)c1cccc(Nc2nccc(Nc3ccc4ncsc4c3)n2)c1
II: O=C(NC[C@@H]1CCCO1)c1cccc(Nc2nccc(Nc3ccc4ncsc4c3)n2)c1
III: Cc1cccc(N(C)c2cc(Nc3cccc(C(=O)NCc4ccc(N(C)C)cc4)c3)ncn2)c1
IV: Nc1nc(Nc2ccc3ncsc3c2)cc(N2CCC[C@H]2C(=O)N[C@@H](CO)c2ccccc2)n1
V: Nc1nc(Nc2ccc3ncsc3c2)cc(N2CCC[C@H]2C(=O)NCCc2cccc(I)c2)n1
Problem: List the 5 entries from lowest inhibition to highest inhibition value. Form entry: ranked labels (order as requested).
Solution: III, V, IV, II, I

###

Target: Protein-tyrosine kinase 6 (Homo sapiens) (UniProt Q13882)
Sequence (Q13882 whole entry, looked up): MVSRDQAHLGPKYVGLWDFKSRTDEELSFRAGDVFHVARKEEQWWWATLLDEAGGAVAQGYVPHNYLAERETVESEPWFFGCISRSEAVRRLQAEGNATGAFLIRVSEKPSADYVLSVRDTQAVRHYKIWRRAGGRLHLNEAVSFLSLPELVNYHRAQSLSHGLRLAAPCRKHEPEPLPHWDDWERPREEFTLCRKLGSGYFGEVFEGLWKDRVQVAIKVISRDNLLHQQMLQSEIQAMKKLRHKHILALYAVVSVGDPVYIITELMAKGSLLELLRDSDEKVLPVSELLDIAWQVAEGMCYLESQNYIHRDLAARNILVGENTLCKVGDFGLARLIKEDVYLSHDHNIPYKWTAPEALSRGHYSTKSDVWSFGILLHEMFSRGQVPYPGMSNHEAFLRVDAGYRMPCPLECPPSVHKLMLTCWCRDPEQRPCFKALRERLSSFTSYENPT
Test: Inhibition of Brk at 10 uM by HTRF assay relative to control
Test readout: inhibition (%)

Molecule | Unit name | inhibition
CN(C)CC(C)(C)CNC(=O)C1CCN(c2cc(N3CCOCC3)nc(N)n2)CC1 | % | 3
COc1cccc(Nc2cc(N3CCC[C@H]3C(=O)NCCc3ccc(O)cc3)nc(N)n2)c1 | % | 14
CN(CCc1ccccn1)C(=O)c1cccc(Nc2nccc(Nc3ccc4ncsc4c3)n2)c1 | % | 78
Cc1cccc(N(C)c2cc(Nc3cccc(C(=O)NCc4ccncc4)c3)ncn2)c1 | % | 0
Cc1cccc(N(C)c2cc(Nc3cccc(C(=O)N4CCCC5CCCCC54)c3)ncn2)c1 (centres undefined) | % | 32
Cc1cccc(N(C)c2cc(N3CCN(CC(=O)Nc4nc(-c5ccccc5)cs4)CC3)ncn2)c1 | % | 22

1: O=C(NC1Cc2ccccc2C1)c1cccc(Nc2ccnc(N3CCN(c4ccccc4)CC3)n2)c1
2: COC[C@@H]1CCCN1C(=O)C1CCCN1c1cc(Nc2cccc(Br)c2)ncn1 (some centres undefined)
3: COC[C@@H]1CCCN1C(=O)[C@@H]1CCCN1c1nccc(Nc2ccccc2)n1
Problem: hey, can you rank those molecules up there by inhibition? biggest number first please Form entry: ranked labels (order as requested).
Solution: 3, 2, 1
